molecular target: menin-MLL interaction (Menin MLL 4-43) (Homo sapiens, UniProt O00255); experiment: Fluorescence polarization (FP) competition assay; assay type: binding; settings: fluorescence polarization assay; read-out: Menin MLL 4-43 IC50
Items are presented alongside their recorded IC50.

Some compounds with known IC50 results, for comparison:
INSERT INTO measurements (compound, reported_measurement) VALUES
  ('Cc1c(CN2CCC(Nc3ncnc4sc(CC(F)(F)F)cc34)CC2)ccc2c1cc(C#N)n2CC12CC(NC(=O)CN3CCCC3)(C1)C2 [Compound 57]', '< 50 nM'),
  ('Cc1c(CN2CCC(Nc3ncnc4sc(CC(F)(F)F)cc34)CC2)ccc2c1cc(C#N)n2CC12CC(NC(=O)C(N)CC(F)(F)F)(C1)C2 (stereo not drawn) [Compound 74]', '250 to 1000 nM'),
  ('Cc1c(CN2CCC(Nc3ncnc4sc(CC(F)(F)F)cc34)CC2)ccc2c1cc(C#N)n2CC12CC(NC(=O)c3cccc(=O)[nH]3)(C1)C2 [Compound 35]', '< 50 nM'),
  ('Cc1c(CN2CCC(Nc3ncnc4sc(CC(F)(F)F)cc34)CC2)ccc2c1cc(C#N)n2CC12CC(NC(=O)C3CC3)(C1)C2 [Compound 9]', '50 to 250 nM'),
  ('Cc1c(CN2CCC(Nc3ncnc4sc(CC(F)(F)F)cc34)CC2)ccc2c1cc(C#N)n2CC12CC(NC(=O)Cc3cccc(N)c3)(C1)C2 [Compound 78]', '250 to 1000 nM');

In the following, a different compound is considered.
### Prompt Give IC50 only, for CNC12CC(Cn3c(C#N)cc4c(C)c(CN5CCC(Nc6ncnc7sc(CC(F)(F)F)cc67)CC5)ccc43)(C1)C2 [Compound 10] , using menin-MLL interaction (Menin MLL 4-43) (Homo sapiens, UniProt O00255) data.
### Response 50 to 250 nM

---

biological target: menin-MLL interaction (Menin MLL 4-43) (Homo sapiens); assay: Fluorescence polarization (FP) competition assay; format: binding; settings: fluorescence polarization assay; read-out: Menin MLL 4-43 IC50
Measurement label: IC50

INSERT INTO results (compound, reported_measurement) VALUES
  ('C=CC(=O)N[C@H]1C[C@H](Cn2c(C#N)cc3c(C)c(CN4CCC(Nc5ncnc6sc(CC(F)(F)F)cc56)CC4)ccc32)C1', '50 to 250 nM'),
  ('Cc1c(CN2CCC(Nc3ncnc4sc(CC(F)(F)F)cc34)CC2)ccc2c1cc(C#N)n2CC12CC(NC(=O)C(N)c3ccccc3)(C1)C2 (centres unmarked)', '< 50 nM'),
  ('Cc1c(CN2CCC(Nc3ncnc4sc(CC(F)(F)F)cc34)CC2)ccc2c1cc(C#N)n2CC12CC(N(C3CC3)C3CC3)(C1)C2', '> 1000 nM'),
  ('CCC(=O)NC12CC(CCn3c(C#N)cc4c(C)c(CN5CCC(Nc6ncnc7sc(CC(F)(F)F)cc67)CC5)ccc43)(C1)C2', '> 1000 nM'),
  ('Cc1c(CN2CCC(Nc3ncnc4sc(CC(F)(F)F)cc34)CC2)ccc2c1cc(C#N)n2CC12CC(NC(=O)C(O)CO)(C1)C2 (centres unmarked)', '50 to 250 nM');

### Prompt Please supply the value of reported IC50 for the item Cc1c(CN2CCC(Nc3ncnc4sc(CC(F)(F)F)cc34)CC2)ccc2c1cc(C#N)n2CC12CC(NC(=O)CO)(C1)C2
### Response 50 to 250 nM

### Prompt Please supply the value of reported IC50 for the item CCCCC(N)C(=O)NC12CC(Cn3c(C#N)cc4c(C)c(CN5CCC(Nc6ncnc7sc(CC(F)(F)F)cc67)CC5)ccc43)(C1)C2 (centres unmarked)
### Response 50 to 250 nM

### Prompt Please supply the value of reported IC50 for the item Cc1c(CN2CCC(Nc3ncnc4sc(CC(F)(F)F)cc34)CC2)ccc2c1cc(C#N)n2CC12CC(NC(=O)CN(C)C)(C1)C2
### Response < 50 nM

---

target: menin-MLL interaction (Menin MLL 4-43) (Homo sapiens); assay: Fluorescence polarization (FP) competition assay; assay type: binding; settings: fluorescence polarization assay; read-out: Menin MLL 4-43 IC50
Measurement label: IC50

Some molecules with known IC50 results, for comparison:
INSERT INTO assay_data (molecule, reported_measurement) VALUES
  ('Cc1c(CN2CCC(Nc3ncnc4sc(CC(F)(F)F)cc34)CC2)ccc2c1cc(C#N)n2CC12CC(NC(=O)C(C)O)(C1)C2 (stereo not drawn)', '0.05 to 0.25 µM'),
  ('Cc1c(CN2CCC(Nc3ncnc4sc(CC(F)(F)F)cc34)CC2)ccc2c1cc(C#N)n2CC12CC(NC=O)(C1)C2', '< 0.05 µM');

In the following, a different molecule is considered.
### Prompt Please supply the value of reported IC50 for the item Cc1nc(NC2CCN(Cc3ccc4c(cc(C#N)n4CC45CC(NC=O)(C4)C5)c3C)CC2)c2cc(CC(F)(F)F)sc2n1
### Response < 0.05 µM

---

Items are presented alongside their recorded pIC50.
Target: menin-MLL interaction (Menin MLL 4-43) (Homo sapiens, UniProt O00255)
Sequence (O00255 1-610): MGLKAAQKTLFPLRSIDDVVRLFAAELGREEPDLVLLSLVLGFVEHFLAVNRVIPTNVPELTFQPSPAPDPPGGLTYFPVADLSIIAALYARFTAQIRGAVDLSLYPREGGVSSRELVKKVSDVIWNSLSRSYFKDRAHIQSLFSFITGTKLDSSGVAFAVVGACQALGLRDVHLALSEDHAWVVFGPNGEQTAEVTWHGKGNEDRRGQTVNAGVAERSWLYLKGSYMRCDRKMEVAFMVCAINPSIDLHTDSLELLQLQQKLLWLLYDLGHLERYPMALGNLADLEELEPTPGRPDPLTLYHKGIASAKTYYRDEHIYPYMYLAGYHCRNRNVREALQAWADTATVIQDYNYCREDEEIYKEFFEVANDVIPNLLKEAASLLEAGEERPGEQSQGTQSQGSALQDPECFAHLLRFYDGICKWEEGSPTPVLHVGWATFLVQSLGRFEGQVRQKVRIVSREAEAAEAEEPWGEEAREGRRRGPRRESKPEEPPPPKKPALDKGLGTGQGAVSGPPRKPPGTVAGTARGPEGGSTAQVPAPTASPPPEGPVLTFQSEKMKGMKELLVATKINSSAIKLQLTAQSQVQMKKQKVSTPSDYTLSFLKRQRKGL
Test: Fluorescence polarization (FP) competition assay
Format: binding
Conditions: fluorescence polarization assay; read-out: Menin MLL 4-43 IC50
pIC50: −log10 of the molar value.

Some compounds with known pIC50 results, for comparison:
INSERT INTO assay_data (compound, reported_measurement) VALUES
  ('Cc1c(CN2CCC(Nc3ncnc4sc(CC(F)(F)F)cc34)CC2)ccc2c1cc(C#N)n2CC12CC(NC(=O)C(N)C(F)(F)F)(C1)C2 (stereo not shown)', '6.00 to 6.60'),
  ('Cc1c(CN2CCC(Nc3ncnc4sc(CC(F)(F)F)cc34)CC2)ccc2c1cc(C#N)n2CC12CC(NC(=O)CNS(C)(=O)=O)(C1)C2', '6.60 to 7.30'),
  ('CC(=O)N[C@H]1C[C@@H](Cn2c(C#N)cc3c(C)c(CN4CCC(Nc5ncnc6sc(CC(F)(F)F)cc56)CC4)ccc32)C1', '6.00 to 6.60'),
  ('CNC(CO)C(=O)NC12CC(Cn3c(C#N)cc4c(C)c(CN5CCC(Nc6ncnc7sc(CC(F)(F)F)cc67)CC5)ccc43)(C1)C2 (stereo not shown)', '> 7.30'),
  ('CCC(=O)NC12CC(Cn3c(C#N)cc4c(C)c(CN5CCC(Nc6ncnc7sc(CC(F)(F)F)cc67)CC5)ccc43)(C1)C2', '6.60 to 7.30'),
  ('C=CC(=O)NC12CC(Cn3c(C#N)cc4c(C)c(CN5CCC(Nc6ncnc7sc(CC(F)(F)F)cc67)CC5)ccc43)(C1)C2', '6.60 to 7.30'),
  ('CC[C@@H](NC)C(=O)NC12CC(Cn3c(C#N)cc4c(C)c(CN5CCC(Nc6ncnc7sc(CC(F)(F)F)cc67)CC5)ccc43)(C1)C2', '> 7.30'),
  ('Cc1c(CN2CCC(Nc3ncnc4sc(CC(F)(F)F)cc34)CC2)ccc2c1cc(C#N)n2CC12CC(C(=O)O)(C1)C2', '< 6.00');

### Prompt Give pIC50 only, for CC(=O)NC12CC(Cn3c(C#N)cc4c(C)c(CN5CCC(Nc6ncnc7sc(CC(F)(F)F)cc67)CC5)ccc43)(C1)C2 , using menin-MLL interaction (Menin MLL 4-43) (Homo sapiens, UniProt O00255) data.
### Response 6.60 to 7.30

### Prompt Give pIC50 only, for CNc1nc(NC2CCN(Cc3ccc4c(cc(C#N)n4CC45CC(NC=O)(C4)C5)c3C)CC2)c2cc(CC(F)(F)F)sc2n1 , using menin-MLL interaction (Menin MLL 4-43) (Homo sapiens, UniProt O00255) data.
### Response > 7.30

### Prompt Give pIC50 only, for Cc1c(CN2CCC(Nc3ncnc4sc(CC(F)(F)F)cc34)CC2)ccc2c1cc(C#N)n2CC12CC(NC(=O)C(N)C(C)C)(C1)C2 (stereo not shown) , using menin-MLL interaction (Menin MLL 4-43) (Homo sapiens, UniProt O00255) data.
### Response > 7.30

### Prompt Give pIC50 only, for CCC(=O)NC12CC(Cn3c(C#N)cc4cc(CN5CCC(Nc6ncnc7sc(CC(F)(F)F)cc67)CC5)c(O)cc43)(C1)C2 , using menin-MLL interaction (Menin MLL 4-43) (Homo sapiens, UniProt O00255) data.
### Response 6.60 to 7.30

### Prompt Give pIC50 only, for CC[C@@H](N)C(=O)NC12CC(Cn3c(C#N)cc4c(C)c(CN5CCC(Nc6ncnc7sc(CC(F)(F)F)cc67)CC5)ccc43)(C1)C2 , using menin-MLL interaction (Menin MLL 4-43) (Homo sapiens, UniProt O00255) data.
### Response > 7.30
